Answer each item with its documented pIC50.
Keep it numeric: pIC50 is minus log10 of the concentration in mol/L.

State its pIC50 on UniProtKB P42680: Nc1ncnc2c1c(-c1ccc(F)c(O)c1)nn2C1CCc2ccccc2C1 (single isomer, unassigned) [Compound No. 26b]
Sequence (P42680 whole entry): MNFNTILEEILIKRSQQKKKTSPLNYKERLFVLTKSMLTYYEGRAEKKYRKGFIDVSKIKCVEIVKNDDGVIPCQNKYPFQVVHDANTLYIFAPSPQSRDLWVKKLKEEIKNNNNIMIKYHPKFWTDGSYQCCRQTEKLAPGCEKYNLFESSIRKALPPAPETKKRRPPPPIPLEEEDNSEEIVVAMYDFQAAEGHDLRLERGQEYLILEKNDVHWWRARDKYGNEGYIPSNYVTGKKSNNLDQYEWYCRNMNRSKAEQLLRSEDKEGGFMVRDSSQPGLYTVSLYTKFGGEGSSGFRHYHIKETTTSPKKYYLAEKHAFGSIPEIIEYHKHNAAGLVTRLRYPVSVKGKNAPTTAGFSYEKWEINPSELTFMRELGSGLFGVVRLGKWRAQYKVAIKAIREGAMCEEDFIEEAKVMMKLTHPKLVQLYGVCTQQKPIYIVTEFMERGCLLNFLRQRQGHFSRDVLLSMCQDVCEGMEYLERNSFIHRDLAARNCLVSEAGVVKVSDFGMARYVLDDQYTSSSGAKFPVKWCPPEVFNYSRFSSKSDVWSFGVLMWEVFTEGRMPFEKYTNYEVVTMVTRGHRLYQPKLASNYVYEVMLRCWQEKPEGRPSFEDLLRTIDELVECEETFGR
7.09

What measured pIC50 is associated with Nc1ncnc2c1c(-c1ccc(Br)c(O)c1)nn2C1Cc2ccccc2C1 on UniProtKB P42680?
7.00

Enter reported pIC50 observed with UniProtKB P42680 for Nc1ncnc2c1c(-c1ccc(F)c(O)c1)nn2C1CCc2ccccc2C1 (single isomer, unassigned) [Compound No. 26a]
7.31

Recall the recorded pIC50 for C=CC(=O)N1CC(n2nc(-c3cc(O)cc(F)c3)c3c(N)ncnc32)Cc2cc(C)ccc21 (centres unmarked) with UniProtKB P42680 and state it.
4.61

Give UniProtKB P42680 pIC50 for Nc1ncnc2c1c(-c1cc(O)cc(F)c1)nn2C1Cc2ccccc2C1
6.74

###

target: PI3Kα (Homo sapiens); assay: PI3Kα isoform profiling (PI3Kδ protocol); conditions: 10 dose IC50
Sequence (P42336 whole entry, one chain of several, canonical isoform): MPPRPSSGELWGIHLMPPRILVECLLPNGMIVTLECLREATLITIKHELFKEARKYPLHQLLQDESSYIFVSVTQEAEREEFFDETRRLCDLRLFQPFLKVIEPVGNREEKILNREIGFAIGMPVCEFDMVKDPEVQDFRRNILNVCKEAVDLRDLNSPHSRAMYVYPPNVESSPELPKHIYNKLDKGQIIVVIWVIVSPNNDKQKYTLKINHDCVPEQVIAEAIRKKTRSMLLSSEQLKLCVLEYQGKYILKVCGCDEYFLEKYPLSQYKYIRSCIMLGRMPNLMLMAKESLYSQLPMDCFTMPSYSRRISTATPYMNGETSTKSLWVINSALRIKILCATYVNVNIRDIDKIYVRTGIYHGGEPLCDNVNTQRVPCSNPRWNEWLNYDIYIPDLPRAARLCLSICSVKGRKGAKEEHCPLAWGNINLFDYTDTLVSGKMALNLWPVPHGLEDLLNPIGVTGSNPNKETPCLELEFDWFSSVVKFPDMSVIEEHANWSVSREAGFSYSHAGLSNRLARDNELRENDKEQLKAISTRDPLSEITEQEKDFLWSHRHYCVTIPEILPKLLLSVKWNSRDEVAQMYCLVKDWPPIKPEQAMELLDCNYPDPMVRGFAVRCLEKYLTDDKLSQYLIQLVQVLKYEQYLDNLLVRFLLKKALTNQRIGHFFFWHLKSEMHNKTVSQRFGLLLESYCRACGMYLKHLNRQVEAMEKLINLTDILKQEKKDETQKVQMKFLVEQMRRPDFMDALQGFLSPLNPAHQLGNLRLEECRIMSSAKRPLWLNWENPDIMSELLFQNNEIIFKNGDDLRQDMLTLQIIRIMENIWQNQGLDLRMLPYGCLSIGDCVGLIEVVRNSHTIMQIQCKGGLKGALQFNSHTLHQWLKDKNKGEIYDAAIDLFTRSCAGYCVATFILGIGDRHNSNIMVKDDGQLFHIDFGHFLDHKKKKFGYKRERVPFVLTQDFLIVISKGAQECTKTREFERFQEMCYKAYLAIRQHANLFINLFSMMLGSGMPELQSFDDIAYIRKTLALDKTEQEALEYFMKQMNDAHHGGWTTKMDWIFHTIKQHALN
property: pIC50
Remember, pIC50 is on a log scale: it is -log10 of the molar concentration.

What measured pIC50 goes with Nc1ncnc2c1c(-c1ccc(Cl)c(O)c1)cn2C1Cc2ccccc2C1 ?
7.29

Could you share which pIC50 value was measured for Nc1ncnc2c1c(-c1cc(F)c3c(c1)NCCO3)nn2C1Cc2ccccc2C1 ?
6.20

Sample C=CC(=O)N1CC(n2nc(-c3cc(O)cc(F)c3)c3c(N)ncnc32)Cc2cc(C)ccc21 (centres unmarked) [compound 31] — what was its pIC50?
6.27

# input molecule: COc1ccc(-c2nn(C3Cc4ccccc4C3)c3ncnc(N)c23)cc1O ; wanted: its pIC50
7.85

What pIC50 value was documented for this molecule, Nc1ncnc2c1c(-c1cc(O)c(F)c(C(F)(F)F)c1)nn2C1Cc2ccccc2C1 ?
7.68

Which pIC50 value belongs to Nc1ncnc2c1c(-c1ccc(Cl)c(O)c1)nn2C1Cc2ccccc2C1 ?
6.73

Recorded pIC50 of Nc1ncnc2c1c(-c1cc(O)cc(F)c1)nn2C1Cc2ccccc2C1 , please.
7.70

Look up pIC50: Nc1ncnc2c1c(-c1cc(O)cc(F)c1)nn2C1Cc2ccc(F)cc2C1 (centres unmarked)
7.15

For the molecule shown here, Nc1ncnc2c1c(-c1cc(O)c(F)c(F)c1)nn2C1Cc2ccccc2C1 , give the reported pIC50.
7.68

Could you tell me which pIC50 is on file for Nc1ncnc2c1c(-c1cc(O)c(F)c(Cl)c1)cn2C1Cc2ccccc2C1 ?
7.08

Sample Nc1ncnc2c1c(-c1cc(O)c(F)c(F)c1)cn2C1Cc2ccccc2C1 — what was its pIC50?
6.92

Which pIC50 value is on record for Nc1ncnc2c1c(-c1ccc(Cl)c(O)c1F)nn2C1Cc2ccccc2C1 ?
7.15

Any idea what its pIC50 is? The molecule is Nc1ncnc2c1c(-c1cc(O)cc(F)c1)nn2C1CCc2ccccc2C1 (centres unmarked)
7.70

Which pIC50 is listed for Nc1ncnc2c1c(-c1cc(O)cc(F)c1)cn2C1Cc2ccccc2C1 ?
7.13

###

biological target: BTK (Homo sapiens, UniProt Q06187); construct: purchased Reaction Biology Corporation; experiment: BTK kinase assay (HotSpot, 33P ATP); type: biochemical; conditions: 0.1 μM compound, 10 μM ATP
Sequence (Q06187 whole entry): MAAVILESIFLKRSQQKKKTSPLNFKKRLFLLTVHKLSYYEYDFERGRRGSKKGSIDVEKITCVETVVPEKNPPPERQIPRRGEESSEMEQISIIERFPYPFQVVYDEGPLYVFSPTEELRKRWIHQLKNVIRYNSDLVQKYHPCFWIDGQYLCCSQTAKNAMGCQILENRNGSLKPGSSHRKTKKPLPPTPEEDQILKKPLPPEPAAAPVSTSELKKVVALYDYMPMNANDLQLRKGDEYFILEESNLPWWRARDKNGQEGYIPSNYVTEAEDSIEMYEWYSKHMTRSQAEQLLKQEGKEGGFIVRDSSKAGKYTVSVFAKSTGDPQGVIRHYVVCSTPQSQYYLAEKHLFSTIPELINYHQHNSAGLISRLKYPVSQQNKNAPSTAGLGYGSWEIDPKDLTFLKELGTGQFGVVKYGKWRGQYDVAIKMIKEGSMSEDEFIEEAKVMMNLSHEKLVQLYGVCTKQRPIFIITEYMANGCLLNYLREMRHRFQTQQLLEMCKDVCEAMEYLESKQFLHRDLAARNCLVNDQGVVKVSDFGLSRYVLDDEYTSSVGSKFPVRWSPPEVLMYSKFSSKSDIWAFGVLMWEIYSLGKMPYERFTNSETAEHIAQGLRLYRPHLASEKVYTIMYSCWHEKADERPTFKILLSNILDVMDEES
Entries whose BTK @ 0.1 μM (% Inh) is below 30 % Inh take rule met; entries at or above 30 % Inh take rule not met.

Quick check: does Nc1cc(-c2nn(C3CCc4ccccc4C3)c3ncnc(N)c23)cc(F)c1F (centres unmarked) have BTK @ 0.1 μM (% Inh) under 30 % Inh?
rule not met

Regarding COc1cc(-c2nn(C3Cc4ccccc4C3)c3ncnc(N)c23)cc(C#N)c1OC , kindly confirm whether its BTK @ 0.1 μM (% Inh) is beneath 30 % Inh.
rule met

Just wondering, is BTK @ 0.1 μM (% Inh) of Nc1ncnc2c1c(-c1cc(O)c(F)c(C(F)(F)F)c1)nn2C1Cc2ccccc2C1 below 30 % Inh?
rule met

Identify whether the compound Nc1ncnc2c1c(-c1cc(O)c(F)c(F)c1)nn2C1Cc2ccc(F)cc2C1 (centres unmarked) records BTK @ 0.1 μM (% Inh) below 30 % Inh.
rule not met

Is it true that BTK @ 0.1 μM (% Inh) reported for Nc1ncnc2c1c(-c1cc(O)c(F)c(F)c1)cn2C1CCc2ccccc2C1 (centres unmarked) is less than 30 % Inh?
rule not met

Determine if COc1c(Cl)ccc(-c2nn(C3Cc4ccccc4C3)c3ncnc(N)c23)c1Cl shows BTK @ 0.1 μM (% Inh) strictly lower than 30 % Inh.
rule met

###

Parameter 'readout' = IC50; parameter 'system' = PI3Kδ (Homo sapiens).
Sequence (O00329 whole entry): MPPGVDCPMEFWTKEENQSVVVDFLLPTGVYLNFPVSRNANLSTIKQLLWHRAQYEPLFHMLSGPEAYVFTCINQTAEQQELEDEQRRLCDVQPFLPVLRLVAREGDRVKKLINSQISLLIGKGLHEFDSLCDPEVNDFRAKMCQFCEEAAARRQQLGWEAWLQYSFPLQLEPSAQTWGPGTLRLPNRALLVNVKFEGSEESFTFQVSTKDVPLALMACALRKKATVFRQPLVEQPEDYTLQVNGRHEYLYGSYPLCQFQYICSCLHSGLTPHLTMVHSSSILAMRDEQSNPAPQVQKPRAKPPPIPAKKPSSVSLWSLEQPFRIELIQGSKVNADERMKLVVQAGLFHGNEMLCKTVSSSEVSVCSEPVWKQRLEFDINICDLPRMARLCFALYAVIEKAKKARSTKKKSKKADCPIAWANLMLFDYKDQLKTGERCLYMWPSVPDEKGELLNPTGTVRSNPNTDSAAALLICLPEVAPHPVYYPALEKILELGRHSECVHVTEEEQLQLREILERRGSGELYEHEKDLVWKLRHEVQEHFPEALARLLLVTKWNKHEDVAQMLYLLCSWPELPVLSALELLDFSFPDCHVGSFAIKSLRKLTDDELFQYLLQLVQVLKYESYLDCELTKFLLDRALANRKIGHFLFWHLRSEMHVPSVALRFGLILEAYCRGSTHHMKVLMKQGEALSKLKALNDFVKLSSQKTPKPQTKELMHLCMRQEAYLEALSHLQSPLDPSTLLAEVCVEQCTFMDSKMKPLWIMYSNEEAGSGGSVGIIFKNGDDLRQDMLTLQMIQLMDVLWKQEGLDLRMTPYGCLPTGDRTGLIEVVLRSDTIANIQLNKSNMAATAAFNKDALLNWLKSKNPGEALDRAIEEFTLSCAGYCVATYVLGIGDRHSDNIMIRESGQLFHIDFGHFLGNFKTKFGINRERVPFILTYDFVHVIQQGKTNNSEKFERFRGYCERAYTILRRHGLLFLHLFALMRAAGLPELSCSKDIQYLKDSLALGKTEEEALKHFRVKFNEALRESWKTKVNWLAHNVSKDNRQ
Sequence (P27986 whole entry partner): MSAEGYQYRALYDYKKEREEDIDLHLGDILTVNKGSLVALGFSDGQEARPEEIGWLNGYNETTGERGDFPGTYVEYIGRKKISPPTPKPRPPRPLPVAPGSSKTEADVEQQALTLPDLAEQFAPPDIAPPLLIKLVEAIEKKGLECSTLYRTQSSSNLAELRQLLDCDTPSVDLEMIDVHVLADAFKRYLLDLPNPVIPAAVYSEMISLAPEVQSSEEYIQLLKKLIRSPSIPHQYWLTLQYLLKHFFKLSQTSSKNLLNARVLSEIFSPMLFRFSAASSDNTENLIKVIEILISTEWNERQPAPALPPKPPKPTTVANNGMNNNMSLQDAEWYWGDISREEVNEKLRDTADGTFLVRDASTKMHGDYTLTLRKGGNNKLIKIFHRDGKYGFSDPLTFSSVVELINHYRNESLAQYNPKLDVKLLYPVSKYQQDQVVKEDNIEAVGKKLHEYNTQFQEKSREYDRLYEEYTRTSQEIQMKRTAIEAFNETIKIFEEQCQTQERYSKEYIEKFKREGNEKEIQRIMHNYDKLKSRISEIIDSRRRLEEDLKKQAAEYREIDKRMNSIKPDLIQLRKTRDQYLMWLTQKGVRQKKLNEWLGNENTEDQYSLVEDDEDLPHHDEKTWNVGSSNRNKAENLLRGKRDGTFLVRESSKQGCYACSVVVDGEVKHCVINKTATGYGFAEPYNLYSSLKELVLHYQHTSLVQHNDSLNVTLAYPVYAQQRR
Expressed in nM, but write only the number.

Please look up its IC50: Nc1ncnc2c1c(-c1ccc(F)c(O)c1)nn2C1CCc2ccccc2C1 (single isomer, unassigned) [Compound No. 26b]
55.2

Requested read-out: IC50. Entry: Nc1ncnc2c1c(-c1cn[nH]c1)nn2C1CCc2ccccc2C1 (racemic) [compound 20]
157

Recorded IC50 for N#Cc1cc(-c2nn(C3CCc4ccccc4C3)c3ncnc(N)c23)cc(O)c1F (stereo not shown) [compound 130] , please?
0.269

Suppose we examine the compound Nc1ncnc2c1c(-c1cc(O)cc(F)c1)nn2C1CCc2ccccc2C1 (stereo not shown) [compound 6] ; what IC50 value has been reported?
8.6

###

target: BTK (Homo sapiens); construct: purchased Reaction Biology Corporation; assay: BTK kinase assay (HotSpot, 33P ATP); assay type: biochemical; conditions: 0.01 μM compound, 10 μM ATP
property: BTK @ 0.01 μM (% Inh)
Hi! Could you send only the number? It should be in % Inh, unit omitted.

Given Nc1cc(-c2nn(C3CCc4ccccc4C3)c3ncnc(N)c23)cc(F)c1F (stereo not drawn) , state its recorded BTK @ 0.01 μM (% Inh).
12.72

Given the compound Nc1nccn2c(C3Cc4ccccc4C3)nc(-c3cc(O)c(F)c(F)c3)c12 , what is its reported BTK @ 0.01 μM (% Inh)?
83.98

May I ask what BTK @ 0.01 μM (% Inh) has been recorded for Nc1ncnc2c1c(-c1cc(F)c3c(c1)NC(=O)CO3)nn2C1Cc2ccccc2C1 ?
6.57

Give the measured BTK @ 0.01 μM (% Inh) of Nc1ncnc2c1c(-c1ccc3c(c1)NCCO3)nn2C1Cc2ccccc2C1 .
17.69

I have this compound here, Nc1ncnc2c(C3Cc4ccccc4C3)cn(-c3cc(O)c(F)c(F)c3)c12 , and I need its recorded BTK @ 0.01 μM (% Inh).
87.65

Report BTK @ 0.01 μM (% Inh) for NCc1cccc(-c2nn(C3Cc4ccccc4C3)c3ncnc(N)c23)c1 please.
−0.81

BTK @ 0.01 μM (% Inh) for Nc1ncnc2c1c(-c1ccc(Cl)c(O)c1)cn2C1Cc2ccccc2C1 ?
77.86

What value of BTK @ 0.01 μM (% Inh) has been reported for the following compound? N#Cc1cc(-c2nn(C3CCc4ccccc4C3)c3ncnc(N)c23)cc(O)c1F (stereo not drawn)
−1.03

Could you tell me which BTK @ 0.01 μM (% Inh) is on file for COc1cc(-c2nn(C3Cc4ccccc4C3)c3ncnc(N)c23)cc(F)c1F ?
8

BTK @ 0.01 μM (% Inh) for Nc1ncnn2c(C3Cc4ccccc4C3)cc(-c3cc(O)c(F)c(F)c3)c12 ?
39.05

Query: BTK @ 0.01 μM (% Inh); subject: COc1cc(-c2nn(C3Cc4ccccc4C3)c3ncnc(N)c23)ccc1O
12.89

Fill in the blank: the reported BTK @ 0.01 μM (% Inh) of Nc1ncnc2c1c(-c1cc(F)c(F)c(F)c1)nn2C1Cc2ccccc2C1 is ____.
8.08

Quick one: BTK @ 0.01 μM (% Inh) for NCc1ccc(-c2nn(C3Cc4ccccc4C3)c3ncnc(N)c23)cc1 ?
−7.89

Recorded BTK @ 0.01 μM (% Inh) of Nc1ncnc2c1c(-c1ccc(Cl)c(O)c1F)nn2C1Cc2ccccc2C1 , please.
17.5

Entry COc1cc(-c2nn(C3Cc4ccccc4C3)c3ncnc(N)c23)cc(C(F)(F)F)c1F : reported BTK @ 0.01 μM (% Inh) = ?
1.24

What value of measured BTK @ 0.01 μM (% Inh) is listed for N#Cc1cc(-c2nn(C3Cc4ccccc4C3)c3ncnc(N)c23)ccc1F ?
11.7

Entry Nc1ccc2c(c1)CC(n1nc(-c3cc(O)c(F)c(F)c3)c3c(N)ncnc31)C2 (stereo not drawn) : reported BTK @ 0.01 μM (% Inh) = ?
80.96

Entry under review: Nc1ncnc2c1c(-c1cc(O)c(F)c(F)c1)cn2C1Cc2ccccc2C1 . Reported BTK @ 0.01 μM (% Inh)?
78.34
